Target: human GluN1/GluN2B NMDA receptors (Homo sapiens)
Construct: expressed in transfected cells
Sequence (Q13224 27-1484, other chains not shown): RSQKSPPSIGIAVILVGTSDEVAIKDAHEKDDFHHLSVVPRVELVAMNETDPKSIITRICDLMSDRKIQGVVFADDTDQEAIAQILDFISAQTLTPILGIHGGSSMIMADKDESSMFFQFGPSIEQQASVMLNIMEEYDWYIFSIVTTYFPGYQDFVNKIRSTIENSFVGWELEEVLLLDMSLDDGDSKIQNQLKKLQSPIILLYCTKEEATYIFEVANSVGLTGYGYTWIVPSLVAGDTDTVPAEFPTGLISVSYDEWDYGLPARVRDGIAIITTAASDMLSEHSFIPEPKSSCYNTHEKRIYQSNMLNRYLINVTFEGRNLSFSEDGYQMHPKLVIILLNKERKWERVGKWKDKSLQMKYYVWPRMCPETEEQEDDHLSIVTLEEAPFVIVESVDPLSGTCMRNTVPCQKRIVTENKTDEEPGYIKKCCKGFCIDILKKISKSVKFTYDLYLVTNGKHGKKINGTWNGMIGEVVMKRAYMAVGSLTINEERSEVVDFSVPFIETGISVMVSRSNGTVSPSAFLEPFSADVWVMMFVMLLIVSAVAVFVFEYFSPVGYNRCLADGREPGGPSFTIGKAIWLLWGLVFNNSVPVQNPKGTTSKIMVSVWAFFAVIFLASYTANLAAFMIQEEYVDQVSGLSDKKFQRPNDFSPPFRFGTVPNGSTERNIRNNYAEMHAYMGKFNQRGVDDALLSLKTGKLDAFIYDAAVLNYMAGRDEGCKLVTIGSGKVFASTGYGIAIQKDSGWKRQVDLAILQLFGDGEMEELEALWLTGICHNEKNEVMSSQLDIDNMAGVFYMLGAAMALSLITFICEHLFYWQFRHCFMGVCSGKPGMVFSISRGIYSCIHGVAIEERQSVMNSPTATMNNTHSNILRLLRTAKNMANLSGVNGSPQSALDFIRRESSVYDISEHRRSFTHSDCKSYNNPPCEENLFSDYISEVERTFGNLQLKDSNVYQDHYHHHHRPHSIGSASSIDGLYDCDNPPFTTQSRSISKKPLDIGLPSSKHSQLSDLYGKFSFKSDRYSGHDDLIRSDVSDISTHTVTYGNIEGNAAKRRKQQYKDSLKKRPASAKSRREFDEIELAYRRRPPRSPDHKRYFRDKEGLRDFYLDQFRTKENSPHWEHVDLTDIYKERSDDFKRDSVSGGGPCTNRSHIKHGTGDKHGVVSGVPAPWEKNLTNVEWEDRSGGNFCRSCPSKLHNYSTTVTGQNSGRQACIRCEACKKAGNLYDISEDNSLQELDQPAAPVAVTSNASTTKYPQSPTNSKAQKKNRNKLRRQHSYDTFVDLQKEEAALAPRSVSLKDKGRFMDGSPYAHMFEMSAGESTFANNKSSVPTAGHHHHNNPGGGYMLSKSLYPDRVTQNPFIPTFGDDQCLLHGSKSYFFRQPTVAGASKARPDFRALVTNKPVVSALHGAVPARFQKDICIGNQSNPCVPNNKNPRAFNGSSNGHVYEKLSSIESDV
Assay: Cell-based calcium flux (FLIPR) assay on cloned human NR1/NR2B ion channels expressed in mammalian cells (standard and HTS buffer variants);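 note: stable Tet-On inducible cell line, Ca2+ influx triggered by glutamate at about EC40 plus 10 µM glycine, fluorescent dye read-out over 5 min, normalized to control wells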
Settings: HTS assay buffer (1.5 mM MgCl2 in dye loading buffer; 150 mM NaCl, 3 mM KCl in assay buffer), human GluN1/GluN2B, read-out: NR2B IC50 (μM) HTS assay
reported_endpoint: IC50 (µM)

A selection of reference data follows.
Prompt: Consider the compound COc1ccc(-c2cnc3[nH]c(=O)n(Cc4cccc(F)c4)c3c2)c(OC)c1 and give its measured IC50.
Completion: 2.79

Prompt: Quick check: IC50 of COc1cc(Cn2c(=O)[nH]c3ncc(-c4cccc(C(F)(F)F)c4)cc32)cc(OC)c1 ?
Completion: 17.4

Prompt: For COc1cccc(-c2cnc3[nH]c(=O)n(CC(=O)NC4CC4)c3c2)c1 , what is its reported IC50?
Completion: 1.76

P: O=C(Cn1c(=O)[nH]c2ncc(-c3ccc(Cl)cc3)cc21)NC1CC1
Q: CCOc1cccc(-c2cnc3[nH]c(=O)n(CC(=O)NC4CC4)c3c2)c1
Prompt: Lab note: check whether P or Q shows the higher recorded IC50. // respond with label for picked entry
Completion: Q
(Q: 0.638 µM, P: 0.1 µM)

Data origin, for the record: patent US11759455B2
